Test: Zeta potential analysis (Litesizer 500)
Format: physicochemical
Conditions: colloids produced by the amphipathic sequence in soy oil
No end group written: not given here. *: point of attachment. methylmercury = [CH3][Hg]*
MEASURE: Zeta Potential
In your response, put the unit directly after the numeric value.

Previously resolved entries follow.
| SUBSTANCE | MEASURE | RESULT |
| --- | --- | --- |
| Ac-IVFLI-KKKKK-CONH2 (Ac-IVFLIKKKKK-NH2) | Zeta Potential | 25 mV |
| 5(6)-Ac-FLIVI-KKKKK- C-CF (Ac-FLIVIKKKKKC; also: 5(6)-carboxyfluorescein label (C-CF), attachment not given here) | Zeta Potential | 25 ± 2.7 mV |
| Ac-FLIVI-KKKKK-CO-NH2 (Ac-FLIVIKKKKK-NH2) [Ac-FLIVI-KKKKK-CONH2] | Zeta Potential | 38 mV |
| Ac-FLIVIGSII-KKKKK-CONH2 (Ac-FLIVIGSIIKKKKK-NH2) [Ac-FLIVIGSII-KKKKKCONH2] | Zeta Potential | 21 mV |
| Ac-FLLLL-KKKKK-CONH2 (Ac-FLLLLKKKKK-NH2) | Zeta Potential | −0.6 mV |

Request: Param item = Ac-FAAAA-KKKKK-CONH2 (Ac-FAAAAKKKKK-NH2) [oligo-alanine peptide] ; retrieve measured Zeta Potential.
Response: 10.2 mV

Request: Param item = Ac-FLIVI-KKKKK-C-Me-Hg (Ac-FLIVIKKKKKC(methylmercury)) ; retrieve measured Zeta Potential.
Response: 33 ± 4.0 mV

----------
Assay: Particle size and polydispersity by dynamic light scattering (Litesizer 500)
Format: physicochemical
Conditions: colloids produced by the amphipathic sequence in soy oil
MEASURE: Hydrodynamic Diameter (nm)
Report only the number, with the unit nm understood.

| SUBSTANCE | Hydrodynamic Diameter [nm] |
| --- | --- |
| Ac-IVFLI-KKKKK-CONH2 (Ac-IVFLIKKKKK-NH2) | 594 |
| Ac-FLLLL-KKKKK-CONH2 (Ac-FLLLLKKKKK-NH2) | 666 |

Now for a further substance.
Request: Param item = Ac-FLIVIGSII-KKKKK-CONH2 (Ac-FLIVIGSIIKKKKK-NH2) [Ac-FLIVIGSII-KKKKKCONH2] ; retrieve measured Hydrodynamic Diameter.
Response: 300

----------
substances and their reported Hydrodynamic Diameter
Test: Particle size and polydispersity by dynamic light scattering (Litesizer 500)
Assay type: physicochemical
Conditions: colloids produced by the amphipathic sequence in soy oil
No end group written: not given here. *: point of attachment. methylmercury = [CH3][Hg]*
Report only the number, with the unit nm understood.

Previously resolved entries follow.
| SUBSTANCE | Hydrodynamic Diameter / nm |
| --- | --- |
| 5(6)-Ac-FLIVI-KKKKK- C-CF (Ac-FLIVIKKKKKC; also: 5(6)-carboxyfluorescein label (C-CF), attachment not given here) | 766 |
| Ac-FLIVI-KKKKK-CO-NH2 (Ac-FLIVIKKKKK-NH2) [Ac-FLIVI-KKKKK-CONH2] | 560 |
| Ac-FAAAA-KKKKK-CONH2 (Ac-FAAAAKKKKK-NH2) [oligo-alanine peptide] | 681 |

Now for a further substance.
Request: Param item = Ac-FLIVI-KKKKK-C-Me-Hg (Ac-FLIVIKKKKKC(methylmercury)) ; retrieve measured Hydrodynamic Diameter.
Response: 578
